The reported measurements were obtained from patent US20220125947A1.

# tested system: T1, T cell receptor (TCR) Vγ9 (TRGV9) (human, UniProt Q99603 21-122)
# T1 chain (looked up): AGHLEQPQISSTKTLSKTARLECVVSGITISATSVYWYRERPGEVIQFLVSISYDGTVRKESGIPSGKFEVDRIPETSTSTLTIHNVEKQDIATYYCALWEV
# test summary: cell-based or functional assay
The binders listed here are annotated with their Vg9 T cell %, flow staining.

binder | Vg9 T cell %, flow staining, %
VG9B384 (antibody, human IgG1, lambda, V domains shown) VH: QVQLQESGPALVKPTQTLTLTCTFSGFSLSSSGMCVSWIRQPPGKALEWLTLIDWFDDKYYSTSLKTRLTISKDTSKNQVVLTMTNMDPVDTATYYCARIRGTGAYYYGLDVWGQGTMVTVSS VL: SYELMQPPSVSVSPGQTASITCSGNELGDKYASWYQQQPGQSPVLVIYQDNKRPSGIPERFSGSNSGNTATLTISGTQAMDEADYYCQAWDSSKVVFGGGTKLTVLG | 3.4
VG9B191 (antibody, human IgG1, lambda, V domains shown) VH: EVQLVQSGGGLVKPGGSLRLSCAASGFTFSRYSMNWVRQAPGKGLEGVSSISSSSSYIYYADSVKGRFTISRDNAKNSLYLQMNSLRAEDTAVYYCARDGPTVNWDYYFDLWGRGTLVTVSS VL: QSVLTQPPSVSAAPGQKVTISCSGSSSNIGNNYVSWYQQLPGTAPKLLIYDNNKRPSGIPDRFSGSKSGTSATLGITGLQTGDEADYYCGTWDSSLSTSVVFGGGTKLTVLG | 5.2
VG9B36 (antibody, human IgG1, kappa, V domains shown) VH: QVQLVESGGGLVKPGGSLRLSCASSGFTFSSYGMYWVRQAPGKGLEWVSSISTGSSYIYYADSVKGRFTISRDNAKNSLYLQMNSLRAEDTAVYYCARDKGLAVTGYIMDVWGQGTTVTVSS VL: EIVLTQSPSSLSASVGDRVTITCQASQDISNYLNWYQQKPGKAPKLLIYDASNLETGVPSRFSGSGSGTDFTFTISSLQPEDIAIYYCQQYDNLPMYTFGQGTKVEIKR | 7.8
